Experiment: Tigecycline plasma PK and % F after PO enteric-coated capsule in dogs
Type: in vivo, Beagle dogs
Settings: female, beagle, dog, plasma, po, 30 mg, Tigecycline Plasma Concentration, Time (min) 3.3; PO 30 mg enteric-coated capsule with 500 mg CA and 100 mg LLC, SC430; mean
Description: Adult beagle dogs weighing approximately 9 to 15 kg were used in the study. […] Room temperature was set to be maintained between approximately 20±5° C. Relative humidity was monitored but not controlled. […] The unknown concentration in dog plasma samples was determined by interpolation of the peak area ratios of analyte:internal standard versus the ratio of their nominal concentrations into the regression line obtained from calibration standards spiked in pooled dog plasma. […]
recordedMetric: concentration at […] (ng/mL)
Give just the numeric value; ng/mL need not be written.

Please report the recorded concentration at […] for CN(C)c1cc(NC(=O)CNC(C)(C)C)c(O)c2c1C[C@H]1C[C@H]3[C@H](N(C)C)C(O)=C(C(N)=O)C(=O)[C@@]3(O)C(O)=C1C2=O .
42.4

###

Assay: Tigecycline plasma PK after IV bolus in anesthetized rats
Type: in vivo
Conditions: female, Sprague-Dawley, rat, IV bolus 12 mg/kg, PBS (RA853)
Method: Naïve, female Sprague-Dawley Rats (Taconic Farms, Germantown, N.Y.) housed in groups of three were maintained in a climate-controlled room on a 12:12 h light-dark cycle with food and water available ad libitum. Animals weighed approximately 250 g at the time of testing. […] Female rats were maintained in groups of 3 per polycarbonate (or equivalent) shoebox cage with fresh wood chip bedding at 20-22° C. under a 12 hour on/off light:dark cycle. […] Animal weights were determined post-anesthesia induction. […]
recordedMetric: Cmax
Hey, just the number and the unit after it is fine.

Please report the recorded Cmax for CN(C)c1cc(NC(=O)CNC(C)(C)C)c(O)c2c1C[C@H]1C[C@H]3[C@H](N(C)C)C(O)=C(C(N)=O)C(=O)[C@@]3(O)C(O)=C1C2=O .
50.7 µg/mL

###

experiment: Tigecycline plasma PK after IV bolus in dogs; type: in vivo, Beagle dogs; details: female, beagle, dog, plasma, intravenous, 5 mg, Tigecycline Plasma Concentration, 40 min; 5 mg IV in PBS ([…]), SC431; individual dogs
recordedMetric: concentration at 40 min (ng/mL)
Give just the numeric value; ng/mL need not be written.

Please report the recorded concentration at 40 min for CN(C)c1cc(NC(=O)CNC(C)(C)C)c(O)c2c1C[C@H]1C[C@H]3[C@H](N(C)C)C(O)=C(C(N)=O)C(=O)[C@@]3(O)C(O)=C1C2=O [Tigecycline] .
72

###

assay: Tigecycline plasma PK and % F after PO enteric-coated capsule in dogs; format: in vivo, Beagle dogs; settings: female, beagle, dog, plasma, po, 30 mg, Tigecycline Plasma Concentration, Time (min) 2.0; PO 30 mg enteric-coated capsule with 500 mg CA and 100 mg LLC, SC430; mean
recordedMetric: concentration at 2 min (ng/mL)
Give just the numeric value; ng/mL need not be written.

Please report the recorded concentration at 2 min for CN(C)c1cc(NC(=O)CNC(C)(C)C)c(O)c2c1C[C@H]1C[C@H]3[C@H](N(C)C)C(O)=C(C(N)=O)C(=O)[C@@]3(O)C(O)=C1C2=O .
83.5

###

experiment: Kanamycin and tobramycin plasma PK after IV bolus in dogs; format: in vivo, Beagle dogs; details: female, Beagle, dog, plasma, iv, 0.1 mg, single IV bolus 0.10 mg; read-out: AUC, individual dogs (converted)
recordedMetric: AUC (ng·h/mL)
Give just the numeric value; ng·h/mL need not be written.

Please report the recorded AUC for NC[C@H]1O[C@H](O[C@H]2[C@H](O)[C@@H](O[C@H]3O[C@H](CO)[C@@H](O)[C@H](N)[C@H]3O)[C@H](N)C[C@@H]2N)[C@H](O)[C@@H](O)[C@@H]1O .
46.5
